- Tested on: E. coli DNA gyrase B (Escherichia coli)
- Assay info: In-vitro enzyme assay on DNA gyrase B
- Assay type: biochemical
Measure name: IC50 (nM)
Express it in nM; write the number only.

Value of IC50 reported for the molecule NC1=NNC(=O)C1=NNN1C(=O)c2ccccc2C1=O is 340

---

- Test system: human liver cancer cell line (HepG-2)
- Assay info: MTT anticancer assay
- Assay type: cell-based
- Condition set: HepG2, HePG-2 cancer liver cell line, mean of three values, read-out: IC50 (Mean ± SEM)
Measure name: IC50

Worked examples follow.
[[record]]
molecular_string = "NC1=Nc2c(N=NN3C(=O)c4ccccc4C3=O)c(O)nn2C1"
result = "14.4 µg/mL"

[[record]]
molecular_string = "O=C1Cn2nc(O)c(N=NN3C(=O)c4ccccc4C3=O)c2N1"
result = "31.8 µg/mL"

[[record]]
molecular_string = "CCOC(=O)C(C#N)=NNN1C(=O)c2ccccc2C1=O"
result = "12.6 µg/mL"

[[record]]
molecular_string = "N#Cc1cnc2c(N=NN3C(=O)c4ccccc4C3=O)c(O)nn2c1N"
result = "9.11 µg/mL"


Please find the next compound below.
Value of IC50 reported for the compound N#Cc1nnc2c(N=NN3C(=O)c4ccccc4C3=O)c(O)nn2c1N is 7.5 µg/mL

---

- Test system: human liver cancer cell line (HepG-2)
- Assay info: MTT anticancer assay
- Format: cell-based
- Condition set: HepG2, HePG-2 cancer liver cell line, mean of three values, read-out: IC50 (Mean ± SEM)
A collection of molecules and their measured IC50
Express it in µg/mL; write the number only.

Worked examples follow.
[[record]]
molecule = "CC[C@]1(O)C[C@@H]2CN(CCc3c([nH]c4ccccc34)[C@@](C(=O)OC)(c3cc4c(cc3OC)N(C)[C@H]3[C@@](O)(C(=O)OC)[C@H](OC(C)=O)[C@]5(CC)C=CCN6CC[C@]43[C@@H]65)C2)C1 [Vinblastine, reference compound]"
measure_name = "IC50"
unit_symbol = "µg/mL"
quantitative_result = 4.63

[[record]]
molecule = "Nc1c(C(=O)c2ccccc2)cnc2c(N=NN3C(=O)c4ccccc4C3=O)c(O)nn12 [Compound 14]"
measure_name = "IC50"
unit_symbol = "µg/mL"
quantitative_result = 34.8

[[record]]
molecule = "O=C1c2ccccc2C(=O)N1N=Nc1c(O)nn2cc(-c3ccccc3)[nH]c12 [Compound 7]"
measure_name = "IC50"
unit_symbol = "µg/mL"
quantitative_result = 23.6

[[record]]
molecule = "CSc1c(C#N)c(N)nc2c(N=NN3C(=O)c4ccccc4C3=O)c(O)nn12 [Compound 9]"
measure_name = "IC50"
unit_symbol = "µg/mL"
quantitative_result = 5.6

[[record]]
molecule = "CCOC(=O)c1nnc2c(N=NN3C(=O)c4ccccc4C3=O)c(O)nn2c1C [Compound 17]"
measure_name = "IC50"
unit_symbol = "µg/mL"
quantitative_result = 9.92


Value of IC50 reported for the molecule NC1=NNC(=O)C1=NNN1C(=O)c2ccccc2C1=O [Compound 4] is 4.22

Value of IC50 reported for the molecule CN(C)C=NC1=NNC(=O)C1=NNN1C(=O)c2ccccc2C1=O [Compound 10] is 16.7

---

- Tested on: VEGFR-2 (Homo sapiens, UniProt P35968)
- Sequence (P35968 20-1356): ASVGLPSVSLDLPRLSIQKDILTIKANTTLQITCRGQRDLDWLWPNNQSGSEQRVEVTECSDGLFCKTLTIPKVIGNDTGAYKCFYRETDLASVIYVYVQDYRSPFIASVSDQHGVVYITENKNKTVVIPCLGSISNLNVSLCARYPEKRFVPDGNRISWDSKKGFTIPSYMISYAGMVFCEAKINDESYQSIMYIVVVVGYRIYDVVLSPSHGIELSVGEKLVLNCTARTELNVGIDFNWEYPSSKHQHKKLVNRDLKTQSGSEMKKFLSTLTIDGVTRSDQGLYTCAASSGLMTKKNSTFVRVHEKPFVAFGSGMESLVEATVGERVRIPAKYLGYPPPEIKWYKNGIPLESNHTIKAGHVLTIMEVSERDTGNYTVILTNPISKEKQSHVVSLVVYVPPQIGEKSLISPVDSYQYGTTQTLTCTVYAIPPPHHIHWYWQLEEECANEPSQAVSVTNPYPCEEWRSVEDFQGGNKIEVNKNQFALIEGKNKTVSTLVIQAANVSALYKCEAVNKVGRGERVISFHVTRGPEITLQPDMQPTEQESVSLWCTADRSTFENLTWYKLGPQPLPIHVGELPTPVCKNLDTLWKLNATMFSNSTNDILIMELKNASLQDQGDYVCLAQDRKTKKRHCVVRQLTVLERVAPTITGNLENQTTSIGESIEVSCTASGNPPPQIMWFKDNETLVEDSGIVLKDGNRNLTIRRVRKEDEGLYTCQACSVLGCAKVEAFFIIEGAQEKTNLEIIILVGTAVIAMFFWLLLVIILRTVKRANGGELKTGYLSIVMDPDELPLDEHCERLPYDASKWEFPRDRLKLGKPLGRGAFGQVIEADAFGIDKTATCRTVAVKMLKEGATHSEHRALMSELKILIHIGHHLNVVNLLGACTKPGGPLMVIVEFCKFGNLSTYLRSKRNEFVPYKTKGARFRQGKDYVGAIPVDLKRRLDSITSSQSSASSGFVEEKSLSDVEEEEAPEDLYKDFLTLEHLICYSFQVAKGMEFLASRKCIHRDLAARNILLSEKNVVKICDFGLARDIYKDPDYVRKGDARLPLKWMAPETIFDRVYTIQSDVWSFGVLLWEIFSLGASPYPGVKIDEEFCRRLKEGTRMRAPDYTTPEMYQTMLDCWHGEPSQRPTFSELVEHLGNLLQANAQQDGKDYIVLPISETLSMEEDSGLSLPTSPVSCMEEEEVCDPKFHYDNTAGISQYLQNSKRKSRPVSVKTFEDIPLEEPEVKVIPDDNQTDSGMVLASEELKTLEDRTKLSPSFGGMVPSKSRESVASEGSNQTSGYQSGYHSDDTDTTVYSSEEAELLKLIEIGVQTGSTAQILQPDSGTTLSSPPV
Measure name: IC50 (nM)
Express it in nM; write the number only.

Reported VEGFR-2 (Homo sapiens, UniProt P35968) IC50 for item NC1=NNC(=O)C1=NNN1C(=O)c2ccccc2C1=O was 90

---

- Test system: B. subtilis RCMB 010067
- Assay info: Agar well diffusion, inhibition zone
- Assay type: cell-based, Bacillus subtilis
- Condition set: Bacillus subtilis, RCMB010067, 1 mg/mL, mean of three values, read-out: Mean diameter of inhibition zone (Mean ± SEM)
Measure name: zone of inhibition at 1000 µg/mL (mm)
Express it in mm; write the number only.

Value of zone of inhibition at 1000 µg/mL reported for the molecule N#Cc1cnc2c(N=NN3C(=O)c4ccccc4C3=O)c(O)nn2c1N is 24.3

Value of zone of inhibition at 1000 µg/mL reported for the molecule NC1=Nc2c(N=NN3C(=O)c4ccccc4C3=O)c(O)nn2C1 is 17.8

Value of zone of inhibition at 1000 µg/mL reported for the molecule NC1=NNC(=O)C1=NNN1C(=O)c2ccccc2C1=O is 25.1

Value of zone of inhibition at 1000 µg/mL reported for the molecule O=C1c2ccccc2C(=O)N1N=Nc1c(O)nn2cc(-c3ccccc3)[nH]c12 is 21.5

Value of zone of inhibition at 1000 µg/mL reported for the molecule CN(C)C=NC1=NNC(=O)C1=NNN1C(=O)c2ccccc2C1=O is 11.3

Value of zone of inhibition at 1000 µg/mL reported for the molecule CCOC(=O)c1nnc2c(N=NN3C(=O)c4ccccc4C3=O)c(O)nn2c1C is 20.2

Value of zone of inhibition at 1000 µg/mL reported for the molecule CCOC(=O)C(C#N)=NNN1C(=O)c2ccccc2C1=O is 17.3

Value of zone of inhibition at 1000 µg/mL reported for the molecule CSc1c(C#N)c(N)nc2c(N=NN3C(=O)c4ccccc4C3=O)c(O)nn12 is 23.2

Value of zone of inhibition at 1000 µg/mL reported for the molecule CC1(C)S[C@@H]2[C@H](NC(=O)[C@H](N)c3ccccc3)C(=O)N2[C@H]1C(=O)O [Ampicillin, reference compound] is 26.4

Value of zone of inhibition at 1000 µg/mL reported for the molecule N#Cc1nnc2c(N=NN3C(=O)c4ccccc4C3=O)c(O)nn2c1N is 18.8

---

A collection of compounds and their measured MIC
- System: P. aeruginosa RCMB 010043
- Assay info: Minimum inhibitory concentration, modified agar well diffusion
- Format: cell-based
- Condition set: Pseudomonas aeruginosa, RCMB010043, mean of three values, read-out: MIC (Mean ± SEM)
Express it in µg/mL; write the number only.

Value of MIC reported for the compound NC1=NNC(=O)C1=NNN1C(=O)c2ccccc2C1=O is 0.98

Value of MIC reported for the compound N#Cc1cnc2c(N=NN3C(=O)c4ccccc4C3=O)c(O)nn2c1N is 62.5

---

A collection of molecules and their measured melting point

[[record]]
molecule = "CCOC(=O)c1nnc2c(N=NN3C(=O)c4ccccc4C3=O)c(O)nn2c1C [Compound 17]"
measure_name = "melting point"
result = "> 300 °C"

[[record]]
molecule = "NC1=Nc2c(N=NN3C(=O)c4ccccc4C3=O)c(O)nn2C1 [Compound 6]"
measure_name = "melting point"
result = "180 to 182 °C"

[[record]]
molecule = "N#Cc1cnc2c(N=NN3C(=O)c4ccccc4C3=O)c(O)nn2c1N [Compound 12]"
measure_name = "melting point"
result = "302 °C"

[[record]]
molecule = "CN(C)C=NC1=NNC(=O)C1=NNN1C(=O)c2ccccc2C1=O [Compound 10]"
measure_name = "melting point"
result = "136 to 138 °C"

[[record]]
molecule = "N#Cc1nnc2c(N=NN3C(=O)c4ccccc4C3=O)c(O)nn2c1N [Compound 16]"
measure_name = "melting point"
result = "320 °C"


Value of melting point reported for the molecule Nc1c(C(=O)c2ccccc2)cnc2c(N=NN3C(=O)c4ccccc4C3=O)c(O)nn12 [Compound 14] is 295 to 297 °C

Value of melting point reported for the molecule O=C1c2ccccc2C(=O)N1N=Nc1c(O)nn2cc(-c3ccccc3)[nH]c12 [Compound 7] is 196 to 198 °C

Value of melting point reported for the molecule CCOC(=O)C(C#N)=NNN1C(=O)c2ccccc2C1=O [Compound 3] is 128 to 129 °C

Value of melting point reported for the molecule CSc1c(C#N)c(N)nc2c(N=NN3C(=O)c4ccccc4C3=O)c(O)nn12 [Compound 9] is 210 to 211 °C

Value of melting point reported for the molecule O=C1Cn2nc(O)c(N=NN3C(=O)c4ccccc4C3=O)c2N1 [Compound 5] is 157 to 158 °C

Value of melting point reported for the molecule NC1=NNC(=O)C1=NNN1C(=O)c2ccccc2C1=O [Compound 4] is 289 to 290 °C

---

A collection of compounds and their measured MIC
- Test system: P. aeruginosa RCMB 010043
- Assay info: Minimum inhibitory concentration, modified agar well diffusion
- Type: cell-based
- Condition set: Pseudomonas aeruginosa, RCMB010043, mean of three values, read-out: MIC (Mean ± SEM)
Express it in µg/mL; write the number only.

[[record]]
compound = "N#Cc1nnc2c(N=NN3C(=O)c4ccccc4C3=O)c(O)nn2c1N"
measure_name = "MIC"
quantitative_result = 15.6

[[record]]
compound = "CC1(C)S[C@@H]2[C@H](NC(=O)[C@H](N)c3ccccc3)C(=O)N2[C@H]1C(=O)O [Ampicillin, reference compound]"
measure_name = "MIC"
quantitative_result = 3.9

[[record]]
compound = "CSc1c(C#N)c(N)nc2c(N=NN3C(=O)c4ccccc4C3=O)c(O)nn12"
measure_name = "MIC"
quantitative_result = 15.6


Please find the next compound below.
Value of MIC reported for the compound CCOC(=O)c1nnc2c(N=NN3C(=O)c4ccccc4C3=O)c(O)nn2c1C is 62.5
